Value source: patent US20200292534A1

Molecular target: T1, NLpoly11S
T1 chain: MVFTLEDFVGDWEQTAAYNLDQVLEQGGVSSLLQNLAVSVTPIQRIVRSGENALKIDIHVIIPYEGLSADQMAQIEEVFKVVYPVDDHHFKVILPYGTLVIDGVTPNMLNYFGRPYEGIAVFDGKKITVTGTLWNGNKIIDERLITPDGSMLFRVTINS
Test: luminescence complementation titration, one-site specific binding fit
Please respond with reported Bmax for every item in the list.
Keep the answer to the number alone.

Q. Report Bmax for VTGYRLFEEEL (modifications not checked) [array2.54] please.
A. 251000

Q. Then this binder: VTGYRLFKQIS (modifications not checked) [array2.4]
A. 104000

Q. Then this binder: VEGYRLFEKAL (modifications not checked) [array2.101]
A. 6370

Q. Then this binder: VTGYRLFKKAS (modifications not checked) [array2.2]
A. 104000

Q. Then this binder: VTGYRLFQQIS (modifications not checked) [array2.13]
A. 19400

Q. Then this binder: VEGYRLFKQAS (modifications not checked) [array2.59]
A. 2300

Q. Then this binder: VTGYRLFEQEL (modifications not checked) [array2.51]
A. 46200

Q. Then this binder: VEGYRLFEEAS (modifications not checked) [array2.80]
A. 383000
